Sourced from the nanobody polyreactivity screen of Harvey et al. (2022)

# ASSAY COMMENT: yeast display, Sf9 membrane polyspecificity reagent, FACS + sequencing; frameworks hold sequencing errors
MEASURE: polyreactivity (PSR sort gate)

Below: 10 sequences and their reported polyreactivity (PSR sort gate).
`QVQLVESGGGLVQAGGSLRLSCAASGSILGGNTMGGYRQAPGKERELVAAISRSGGSTYYADSVKGRLTISRDNAKNTVYLQMNSLKPEDTAVYYCNRKQAGHAQGYDYWGQGTQVTVSS` has a reported polyreactivity (PSR sort gate) of high polyreactivity

`QVQLVESGGGLVQAGGSLRLSCAASGFIFEHYAMGWYRQAPGKEREMVARISWRGGSTYYADSVKGRFTISRDNAKNTVYLQMNSLKPEDTAVYYCNAQEVVYFGYYPSDYWGQGTQVTVSS` has a reported polyreactivity (PSR sort gate) of low polyreactivity

`QVQLQESGGGLVKAGGSLRLSCAASGNISPRDAMGWYRQAPGEERDLVASNAYSAITYYADGVKGRYSISRDNAKNTVYLQMNSLKPEDTEVYYCAVYQFTYPVFPAYWGQGTQVSVSS` has a reported polyreactivity (PSR sort gate) of low polyreactivity

`QVQLVESGGGLVQAGGSLRLSCAASGRTVKPYAMGWYRQAPGKERELVAAISSGVSTHYADSVKGRFTISRDNAKNSVYLQMNSLKPEDTAVYYCDADDWVNYWFDYWGQGTQVTVSS` has a reported polyreactivity (PSR sort gate) of low polyreactivity

`QVQLVESGGGLVQAGGSLRLSCAASGLIFSRYTMGWYRQAPGKERELVAAISKTGSSTYYADSVKGRFTISRDNAKNTVYLQMNSLIPEDTAVYYCAARAYPGYYWGQGTQVTVSS` has a reported polyreactivity (PSR sort gate) of high polyreactivity

`QVQLVESGGGLVQAGGSLRLSCAATGSIFNYYAMGWYRQAPGKERELVATISRGGRTNYADSVKGRFTISRDNAKNTVYLQMNRLKAEETAVYYCAADRYYTYNVYYFSSFVYWGHGTQVTVSS` has a reported polyreactivity (PSR sort gate) of high polyreactivity

`QVQLVESGGGLVQAGGSLRLSCAASGFTFSVNAMGWYRQAPGKERELVAAITWSGGSTYYADSVKGRFTISRDNAKNTDYLQMNSLKPEDTAVFYCNARAQSSWGFWYDYWGQGTQVTVSS` has a reported polyreactivity (PSR sort gate) of high polyreactivity

`QVQLVESGGGLVQAGGSLRLSCAASGSTFRVYGMGWYRQAPGKERELDAAIRWIGGRTYYADSVKGRFTISRDNAKNTVYLQMNSLKAEDTAVYYCNARAGPVRFDYWGQGTQVTVSS` has a reported polyreactivity (PSR sort gate) of low polyreactivity

`QVQLVESGGGLVQAGGSLRLSCAASGSTFPFYAMGWYRQAPGKERELVATISSDGSTNYADSVKGRFTISRDNAKNTDYLQMNSLKPEDTAVYYCNALARWCAYYDYGYWGQGTQVTVSS` has a reported polyreactivity (PSR sort gate) of low polyreactivity

`QVHLVESGGGLVQAGGSLRLSCAASGLTFYYYVMGWYRQAPGKERELVAAISYSGGRTYYADSVKGRFTISRDNAKNTVYLQMNSLKPEDTAVYYCAAQSRYGGKFYYWGQGTQVTVSS` has a reported polyreactivity (PSR sort gate) of high polyreactivity

Below: the item to evaluate.
`QVQLVESVGGLDQAGGSLRLSCAASGSTFKRYVMGWYRQAPGKERELVAAITWSGTRTYYADSVKGRFTLSRDNAKNTVYLQMNSLKPEDTAVYYCAARLYGGYDWGQGTQVTVSS` has a reported polyreactivity (PSR sort gate) of high polyreactivity
